Experiment: Parallel artificial membrane permeability assay (PAMPA)
Type: in vitro ADME, porcine
Conditions: dopamine constructs; 200 μM initial, pH 7.4, 4 hours, room temperature, triplicate

Molecule | Effective permeability Pe
CN1C(=O)C(Cc2ccc(NCC(=O)NCCc3ccc(O)c(O)c3)cc2)NC(=O)C1Cc1ccccc1 (stereo not drawn) [Compound 6a, DKP Phe(p-NH—CH2—CO—NH-dopamine)-N-MePhe] | 3.61 10^−8 cm/s
CN1C(=O)C(Cc2ccc(NCC(=O)NCCc3ccc(O)c(O)c3)cc2)NC(=O)C1CC1CCCCC1 (stereo not drawn) [Compound 6b, DKP Phe(p-NH—CH2—CO—NH-dopamine)-N-MeCha] | 2.28 10^−8 cm/s
CN1C(=O)C(Cc2ccc(NCC(=O)NCCc3ccc(O)c(O)c3)cc2)NC(=O)C1Cc1ccc2ccccc2c1 (stereo not drawn) [Compound 6c] | 11.5 10^−8 cm/s
CN1C(=O)C(Cc2ccc(NCC(=O)NCCc3ccc(O)c(O)c3)cc2)NC(=O)C1Cc1ccc2ccc3cccc4ccc1c2c34 (stereo not drawn) [Compound 6d] | 1.90 10^−8 cm/s
CN1C(=O)C(Cc2ccc(NCC(=O)NCCc3ccc(O)c(O)c3)cc2)NC(=O)C1CCc1ccccc1 (stereo not drawn) [Compound 6e] | 0.76 10^−8 cm/s
CCCCCCC1C(=O)NC(Cc2ccc(NCC(=O)NCCc3ccc(O)c(O)c3)cc2)C(=O)N1C (stereo not drawn) [Compound 6f, DKP Phe(p-NH—CH2—CO—NH-dopamine)-N-MeOct] | 32.1 10^−8 cm/s

====

Experiment: Parallel artificial membrane permeability assay (PAMPA)
Format: in vitro ADME, porcine
Conditions: baicalin constructs; 200 μM initial, pH 7.4, 4 hours, room temperature, triplicate
Description: Parallel artificial membrane permeability assay (PAM PA). The evaluation method chosen is the Parallel Artificial Membrane Permeability Assay (PAMPA), which allows to predict or evaluate only this transport mechanism. In general terms, this method is simple, automatizable with high throughput, has a low cost and require only a small amount of test compound. […] The different compounds were evaluated by PAMPA assay.

Compound | Effective permeability Pe
CN1C(=O)C(Cc2ccc(NC(=O)C3OC(Oc4cc5oc(-c6ccccc6)cc(=O)c5c(O)c4O)C(O)C(O)C3O)cc2)NC(=O)C1CCc1ccccc1 (stereo not drawn) | 0.05 10^−8 cm/s
CN1C(=O)C(Cc2ccc(NC(=O)C3OC(Oc4cc5oc(-c6ccccc6)cc(=O)c5c(O)c4O)C(O)C(O)C3O)cc2)NC(=O)C1Cc1ccc2ccc3cccc4ccc1c2c34 (stereo not drawn) | 0.19 10^−8 cm/s
CN1C(=O)C(Cc2ccc(NC(=O)C3OC(Oc4cc5oc(-c6ccccc6)cc(=O)c5c(O)c4O)C(O)C(O)C3O)cc2)NC(=O)C1Cc1ccccc1 (stereo not drawn) | 1.33 10^−8 cm/s
CN1C(=O)C(Cc2ccc(NC(=O)C3OC(Oc4cc5oc(-c6ccccc6)cc(=O)c5c(O)c4O)C(O)C(O)C3O)cc2)NC(=O)C1CC1CCCCC1 (stereo not drawn) | 3.65 10^−7 cm/s
CCCCCCC1C(=O)NC(Cc2ccc(NC(=O)C3OC(Oc4cc5oc(-c6ccccc6)cc(=O)c5c(O)c4O)C(O)C(O)C3O)cc2)C(=O)N1C (stereo not drawn) | 4.97 10^−7 cm/s
CN1C(=O)C(Cc2ccc(NC(=O)C3OC(Oc4cc5oc(-c6ccccc6)cc(=O)c5c(O)c4O)C(O)C(O)C3O)cc2)NC(=O)C1Cc1ccc2ccccc2c1 (stereo not drawn) | 3.70 10^−6 cm/s

Taken from patent US8008492B2.
